Record form. Attribute: MIC Coagulase Negative Staphylococcus (GC 6257). Fill in for each entry.
Tested on: Staphylococcus sp.
assay name: In vitro antibacterial evaluation: minimum inhibitory concentration (MIC), broth dilution method
Format: cell-based
experimental setup: broth dilution, 5×10^5 CFU/mL, 18 hours at 35° C.
# number only, unit µg/mL dropped from output

Suppose we examine the compound CC(c1ccccc1)C1NC(=O)CNC(=O)C(CO)NC(=O)C(C(O)C2CNC(=N)N2C2OC(CO)C(O)C(O)C2O)NC(=O)C(C(O)C2CNC(=N)N2)NC(=O)C(Cc2ccc(OC3OC(CO)C(OC4OC5COC(CC67CC8CC(CC(C8)C6)C7)OC5C(O)C4O)C(O)C3O)cc2)NC1=O (stereo not shown) ; what MIC Coagulase Negative Staphylococcus (GC 6257) value has been reported?
1

Looking for the measured MIC Coagulase Negative Staphylococcus (GC 6257) of CC(c1ccccc1)C1NC(=O)CNC(=O)C(CO)NC(=O)C(C(O)C2CNC(=N)N2C2OC(CO)C(O)C(O)C2O)NC(=O)C(C(O)C2CNC(=N)N2)NC(=O)C(Cc2ccc(OC3OC(CO)C(OC4OC(CO)C(O)C5OC(CC67CC8CC(CC(C8)C6)C7)OC45)C(O)C3O)cc2)NC1=O (stereo not shown) , can you help?
2

Which MIC Coagulase Negative Staphylococcus (GC 6257) is listed for CC(c1ccccc1)C1NC(=O)CNC(=O)C(CO)NC(=O)C(C(O)C2CNC(=N)N2C2OC(CO)C(O)C(O)C2O)NC(=O)C(C(O)C2CNC(=N)N2)NC(=O)C(Cc2ccc(OC3OC(CO)C(OC4OC(CO)C(O)C5OC(c6ccc(-c7ccsc7)cc6)OC45)C(O)C3O)cc2)NC1=O (stereo not shown) [Example 164a] ?
4

Endpoint output: MIC Coagulase Negative Staphylococcus (GC 6257) of CC(c1ccccc1)C1NC(=O)CNC(=O)C(CO)NC(=O)C(C(O)C2CNC(=N)N2C2OC(CO)C(O)C(O)C2O)NC(=O)C(C(O)C2CNC(=N)N2)NC(=O)C(Cc2ccc(OC3OC(CO)C(OC4OC5COC(c6cccc(Oc7ccccc7)c6)OC5C(O)C4O)C(O)C3O)cc2)NC1=O (stereo not shown) . Value?
1

----------
System: Enterococcus sp.
assay name: In vitro antibacterial evaluation: minimum inhibitory concentration (MIC), broth dilution method
Format: cell-based
experimental setup: Enterococcus faecium (GC 4556); 18 hours at 35° C.
experimental readout: MIC Enterococcus faecium (GC 4556) (µg/mL)
Use µg/mL as the unit, but write only the number.

Recorded MIC Enterococcus faecium (GC 4556) for CC(c1ccccc1)C1NC(=O)CNC(=O)C(CO)NC(=O)C(C(O)C2CN(c3ncccn3)C(=N)N2C2OC(CO)C(O)C(O)C2O)NC(=O)C(C(O)C2CNC(=Nc3ncccn3)N2)NC(=O)C(Cc2ccc(OC3OC(CO)C(OC4OC5COC6(OC5C(O)C4O)C4CC5CC(C4)CC6C5)C(O)C3O)cc2)NC1=O (stereo not shown) [Example 228] , please?
32

If you can, please state the reported MIC Enterococcus faecium (GC 4556) value of COc1ccc(COCC2OC(OC3C(CO)OC(Oc4ccc(CC5NC(=O)C(C(C)c6ccccc6)NC(=O)CNC(=O)C(CO)NC(=O)C(C(O)C6CNC(=N)N6C6OC(CO)C(O)C(O)C6O)NC(=O)C(C(O)C6CNC(=N)N6)NC5=O)cc4)C(O)C3O)C(O)C(O)C2O)cc1OCc1ccccc1 (stereo not shown) [Example 239] .
4

Fill blank: measured MIC Enterococcus faecium (GC 4556) of the compound COc1ccc2cc(COCC3OC(OC4C(CO)OC(Oc5ccc(CC6NC(=O)C(C(C)c7ccccc7)NC(=O)CNC(=O)C(CO)NC(=O)C(C(O)C7CNC(=N)N7C7OC(CO)C(O)C(O)C7O)NC(=O)C(C(O)C7CNC(=N)N7)NC6=O)cc5)C(O)C4O)C(O)C(O)C3O)ccc2c1 (stereo not shown) [Example 230] is ____.
8

Fill blank: measured MIC Enterococcus faecium (GC 4556) of the compound CC(c1ccccc1)C1NC(=O)CNC(=O)C(CO)NC(=O)C(C(O)C2CNC(=N)N2C2OC(CO)C(O)C(O)C2O)NC(=O)C(C(O)C2CNC(=N)N2)NC(=O)C(Cc2ccc(OC3OC(CO)C(OC4OC5COC(c6ccc(C(=O)c7ccc(I)cc7)cc6)OC5C(O)C4O)C(O)C3O)cc2)NC1=O (stereo not shown) [Example 186] is ____.
2

Which MIC Enterococcus faecium (GC 4556) is reported for this compound? CC(c1ccccc1)C1NC(=O)CNC(=O)C(CO)NC(=O)C(C(O)C2CNC(=N)N2C2OC(CO)C(O)C(O)C2O)NC(=O)C(C(O)C2CNC(=N)N2)NC(=O)C(Cc2ccc(OC3OC(CO)C(OC4OC5COC6(CCCCC6(C)C)OC5C(O)C4O)C(O)C3O)cc2)NC1=O (stereo not shown) [Example 205]
2

This collection of values is drawn from patent US8247211B2.
